Property: CL; scope: individual compounds
# Test system: Liver microsomes
# Assay text: Intrinsic clearance in rat liver microsomes
# Assay type: ADME, Microsome
Result type: CL (mL/min)

In [3]: df
Out[3]:
                                   compound  result_value
0  CS(=O)(=O)NC[C@H]1CC[C@H](Nc2nc3c(s2)CCSc2ccccc2-3)CC1            40
1    CC(C)S(=O)(=O)NCCCCCNc1nc(-c2ccsc2)cs1            87
2   CC(C)S(=O)(=O)NCCCCCNc1nc(-c2ccccn2)cs1            72
3   CN(C)S(=O)(=O)NCCCCCNc1nc(-c2ccccn2)cs1           110
4  COCCN(CCOC)S(=O)(=O)NCCCCCNc1nc(-c2ccccn2)cs1           150
5  CN1CCN(S(=O)(=O)NCCCCCNc2nc(-c3ccccn3)cs2)CC1           120
6  CC1CN(S(=O)(=O)NCCCCCNc2nc(-c3ccccn3)cs2)CC(C)O1 (centres undefined)            74
7  O=S(=O)(NCCCCCNc1nc(-c2ccccn2)cs1)N1CCOCC1            44
8  CCN(CC)S(=O)(=O)NCCCCCNc1nc(-c2ccccn2)cs1           290

###

# Assay text: Plasma clearance in Sprague-Dawley rat at 2 mg/kg, po and 1 mg/kg, iv by HPLC method
# Assay type: ADME, organism-based
Result type: clearance (mL/min/kg)

                                smiles_str  result_value
0  CN(C)S(=O)(=O)NCCCCCNc1nc(-c2ccccn2)cs1           140
1  CC(C)S(=O)(=O)NCCCCCNc1nc(-c2ccccn2)cs1           383

###

# Assay text: Plasma concentration in Sprague-Dawley rat at 3 mg/kg, po after 1 hr
# Type: ADME, organism-based
# Set-up: dose 3 mg/kg, route oral
Result type: concentration at 1 h (ng/mL)

                                smiles_str  result_value
0  CN(C)S(=O)(=O)NCCCCCNc1nc(-c2ccccn2)cs1            12

###

# System: Liver microsomes
# Assay text: Intrinsic clearance in human liver microsomes
# Type: ADME, Microsome
Property: CL; scope: individual compounds
Result type: CL (L/min)

In [3]: df
Out[3]:
                                    compound  result_type  measurement_units  result_value
 0  O=S(=O)(NCCCCCNc1nc(-c2ccccn2)cs1)N1CCOCC1           CL              L/min           2.9
 1   CC(C)S(=O)(=O)NCCCCCNc1nc(-c2ccccn2)cs1           CL              L/min           2.2
 2   CN(C)S(=O)(=O)NCCCCCNc1nc(-c2ccccn2)cs1           CL              L/min           1.8
 3  CN1CCN(S(=O)(=O)NCCCCCNc2nc(-c3ccccn3)cs2)CC1           CL              L/min           2.5
 4  CS(=O)(=O)NC[C@H]1CC[C@H](Nc2nc3c(s2)CCSc2ccccc2-3)CC1           CL              L/min           2.5
 5    CC(C)S(=O)(=O)NCCCCCNc1nc(-c2ccsc2)cs1           CL              L/min           5.4
 6  COCCN(CCOC)S(=O)(=O)NCCCCCNc1nc(-c2ccccn2)cs1           CL              L/min            16
 7  Cc1nc(C)c(S(=O)(=O)NCCCCCNc2nc(-c3ccccn3)cs2)s1           CL              L/min            27
 8  CC1CN(S(=O)(=O)NCCCCCNc2nc(-c3ccccn3)cs2)CC(C)O1 (stereo unspecified)           CL              L/min            11
 9   CC(C)S(=O)(=O)NCCOCCNc1nc(-c2ccccn2)cs1           CL              L/min           1.1
10  CCN(CC)S(=O)(=O)NCCCCCNc1nc(-c2ccccn2)cs1           CL              L/min            27
